Reported % Inhibition 10^−5M by item:
test system: α1-GABAA receptor; test: Ligand-binding assay, competitive with radiolabeled flumazenil, cerebellum membranes; conditions: Affinity for α1-GABAA receptor; 10^-5M test compound; rat cerebellum membranes; radiolabeled flumazenil 1 nM

Would you please look over these solved cases?
>  <Smiles Representation>
Cc1ccc(-c2nc3ccc(C)cn3c2CN(C)C(=O)c2ccccn2)cc1

>  <Experimental System>
α1-GABAA receptor

>  <Measured Result>
99.8%

$$$$
>  <Smiles Representation>
Cc1ccc(-c2nc3ccc(C)cn3c2CN(C)C(=O)c2cccs2)cc1

>  <Experimental System>
α1-GABAA receptor

>  <Measured Result>
99.7%

$$$$
>  <Smiles Representation>
Cc1ccc(-c2nc3ccc(C)cn3c2CNC(=O)c2cn(C)cn2)cc1

>  <Experimental System>
α1-GABAA receptor

>  <Measured Result>
99.9%

$$$$
>  <Smiles Representation>
Cc1ccc(-c2nc3ccc(C)cn3c2CN(C)C(=O)c2ccc3ccccc3n2)cc1

>  <Experimental System>
α1-GABAA receptor

>  <Measured Result>
67.1%

$$$$
>  <Smiles Representation>
Cc1ccc(-c2nc3ccc(C)cn3c2CN(C)C(=O)c2ccc([N+](=O)[O-])cc2)cc1

>  <Experimental System>
α1-GABAA receptor

>  <Measured Result>
82.5%

$$$$

Form field - read-out: % Inhibition 10^−5M; system: α1-GABAA receptor; submitted item: Cc1ccc(-c2nc3ccc(C)cn3c2CNC(=O)c2ccnc(Cl)c2)cc1
94.5%

Form field - read-out: % Inhibition 10^−5M; system: α1-GABAA receptor; submitted item: Cc1ccc(-c2nc3ccc(C)cn3c2CNC(=O)C2CCC2)cc1
98.8%

Form field - read-out: % Inhibition 10^−5M; system: α1-GABAA receptor; submitted item: Cc1ccc(-c2nc3ccc(C)cn3c2CN(C)C(=O)c2cscn2)cc1
99.5%

Form field - read-out: % Inhibition 10^−5M; system: α1-GABAA receptor; submitted item: Cc1ccc(-c2nc3ccc(C)cn3c2CNC(=O)c2nc(C)oc2C)cc1
100.0%

Form field - read-out: % Inhibition 10^−5M; system: α1-GABAA receptor; submitted item: Cc1ccc(-c2nc3ccc(C)cn3c2CNC(=O)c2ccc([N+](=O)[O-])o2)cc1
99.4%

Form field - read-out: % Inhibition 10^−5M; system: α1-GABAA receptor; submitted item: COc1ccc(C(=O)N(C)Cc2c(-c3ccc(C)cc3)nc3ccc(C)cn23)cc1
91.9%

Form field - read-out: % Inhibition 10^−5M; system: α1-GABAA receptor; submitted item: Cc1ccc(-c2nc3ccc(C)cn3c2CN(C)C(=O)c2cnccn2)cc1
99.9%

Form field - read-out: % Inhibition 10^−5M; system: α1-GABAA receptor; submitted item: Cc1ccc(-c2nc3ccc(C)cn3c2CNC(=O)Cc2cccs2)cc1
96.4%

Form field - read-out: % Inhibition 10^−5M; system: α1-GABAA receptor; submitted item: Cc1ccc(-c2nc3ccc(C)cn3c2CNC(=O)c2cc(C)on2)cc1
99.8%

Form field - read-out: % Inhibition 10^−5M; system: α1-GABAA receptor; submitted item: Cc1ccc(-c2nc3ccc(C)cn3c2CNC(=O)c2sccc2C)cc1
95.4%

Form field - read-out: % Inhibition 10^−5M; system: α1-GABAA receptor; submitted item: Cc1ccc(-c2nc3ccc(C)cn3c2CNC(=O)c2csc(C)n2)cc1
100.4%

Form field - read-out: % Inhibition 10^−5M; system: α1-GABAA receptor; submitted item: Cc1ccc(-c2nc3ccc(C)cn3c2CNC(=O)C2=NNC(=O)CC2)cc1
99.5%

Form field - read-out: % Inhibition 10^−5M; system: α1-GABAA receptor; submitted item: Cc1ccc(C(=O)N(C)Cc2c(-c3ccc(C)cc3)nc3ccc(C)cn23)cc1
90.5%
